These entries and their values trace back to patent US20190381186A1.

Biological target: T1, receiving peptide MK(LKKIKSV)4VGER
T1 construct: With the docking peptide it is said to form a tetramer of two peptides of each type; also called V/K peptide
T1 peptide: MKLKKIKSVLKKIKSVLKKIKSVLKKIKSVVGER
Assay: isothermal titration calorimetry (FIG. 2C); ITC, docking peptide with receiving peptide (FIG. 2C)
Readout label: Kd (nM)
One number for each entry, in nM.

Kindly indicate its recorded Kd. Item: MKLEEIVSELEEIVSELEEIVTELEEIVSEVGER (also called V/E peptide) [docking peptide MK(LEEIVSE)2LEEIVTELEEIVSEVGER]
62
